B1: 1-phosphatidylinositol 4,5-bisphosphate phosphodiesterase gamma-2, residues 772 to 827; numbered along this chain, P16885 (parent)
chain: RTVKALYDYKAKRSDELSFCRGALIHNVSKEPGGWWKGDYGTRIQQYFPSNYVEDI

Variants of: B1
Test: abundance fitness (aPCA) (normalised: wild type 0, dead -1); higher = more abundant; growth selection in yeast, the domain comes from the species named
Conditions: Homo sapiens
Label yes (1) when abundance fitness is at or above -0.1; anything below gets no (0).

>  <MUTATION CODE>
C20D

>  <CLASS NAME>
yes (1)

$$$$
>  <MUTATION CODE>
K10W

>  <CLASS NAME>
no (0)

$$$$
>  <MUTATION CODE>
N27W

>  <CLASS NAME>
no (0)

$$$$
>  <MUTATION CODE>
A23T

>  <CLASS NAME>
yes (1)

$$$$
>  <MUTATION CODE>
Y47N

>  <CLASS NAME>
no (0)

$$$$
>  <MUTATION CODE>
K4Q

>  <CLASS NAME>
no (0)

$$$$
>  <MUTATION CODE>
G33R

>  <CLASS NAME>
no (0)

$$$$
>  <MUTATION CODE>
I44T

>  <CLASS NAME>
yes (1)

$$$$
>  <MUTATION CODE>
E54R

>  <CLASS NAME>
no (0)

$$$$
>  <MUTATION CODE>
Q46V

>  <CLASS NAME>
no (0)

$$$$
>  <MUTATION CODE>
R1W

>  <CLASS NAME>
yes (1)

$$$$
>  <MUTATION CODE>
D55E

>  <CLASS NAME>
yes (1)

$$$$
>  <MUTATION CODE>
Y52C

>  <CLASS NAME>
yes (1)

$$$$
>  <MUTATION CODE>
K4V

>  <CLASS NAME>
yes (1)

$$$$
>  <MUTATION CODE>
K30Q

>  <CLASS NAME>
no (0)

$$$$
>  <MUTATION CODE>
Y9R

>  <CLASS NAME>
no (0)

$$$$
>  <MUTATION CODE>
T2H

>  <CLASS NAME>
no (0)

$$$$
>  <MUTATION CODE>
L24C

>  <CLASS NAME>
yes (1)

$$$$
>  <MUTATION CODE>
K12D

>  <CLASS NAME>
no (0)

$$$$
>  <MUTATION CODE>
V28R

>  <CLASS NAME>
no (0)

$$$$
